Overview of recorded DC50 for various compounds
Biological target: BRAF G466V (Homo sapiens, UniProt P15056, G466V)
Construct: Horizon Discovery (HCT-116 BRAF−/− cells); host or cells: HCT-116 BRAF−/− cells, clone 8, lentiviral transduction
Sequence (P15056 whole entry G466V): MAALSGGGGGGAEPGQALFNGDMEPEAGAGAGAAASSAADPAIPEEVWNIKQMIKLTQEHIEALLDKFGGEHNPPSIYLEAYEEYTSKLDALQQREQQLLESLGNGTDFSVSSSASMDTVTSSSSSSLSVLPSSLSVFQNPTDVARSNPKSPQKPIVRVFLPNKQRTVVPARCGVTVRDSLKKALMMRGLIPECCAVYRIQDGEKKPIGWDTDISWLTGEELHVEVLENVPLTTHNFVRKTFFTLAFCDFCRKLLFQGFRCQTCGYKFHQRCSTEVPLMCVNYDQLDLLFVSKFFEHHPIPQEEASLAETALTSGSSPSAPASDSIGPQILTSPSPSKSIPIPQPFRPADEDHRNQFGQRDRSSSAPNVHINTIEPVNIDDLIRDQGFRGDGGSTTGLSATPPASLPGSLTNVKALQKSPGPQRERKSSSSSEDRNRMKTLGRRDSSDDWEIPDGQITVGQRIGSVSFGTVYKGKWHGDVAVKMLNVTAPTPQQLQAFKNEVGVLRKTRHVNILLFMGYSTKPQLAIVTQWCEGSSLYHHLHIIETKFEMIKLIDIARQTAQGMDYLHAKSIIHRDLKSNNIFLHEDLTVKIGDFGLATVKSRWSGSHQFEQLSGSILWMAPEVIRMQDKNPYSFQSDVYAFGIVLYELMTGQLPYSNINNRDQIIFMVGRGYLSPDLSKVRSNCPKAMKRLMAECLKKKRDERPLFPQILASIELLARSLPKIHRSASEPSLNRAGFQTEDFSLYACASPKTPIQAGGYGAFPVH
Experiment: BRAF HiBiT degradation assay, C-terminal HiBiT-tagged BRAF G466V overexpressed in HCT-116 BRAF−/− cells (clone 8), Nano-Glo HiBiT Lytic assay
Assay type: cell-based
Conditions: BRAF G466V (Class 3), HCT-116 BRAF−/− cells; DC50 at 50% degradation

Fill in reported DC50 for this entry: CCCS(=O)(=O)Nc1cccc(-c2nc(C3CCN(C(=O)C4CCN(CC5CCN(c6ccc(C7CCC(=O)NC7=O)cn6)CC5)CC4)CC3)sc2-c2ccnc(N)n2)c1F (racemic)
50 to 500 nM

Input O=C1CCC(c2ccc(N3CCC(CN4CCN(c5ccc(-n6cc(-c7cc(Cl)cc(NS(=O)(=O)N8CCCC8)c7F)c(-c7ccncc7)n6)cc5)CC4)CC3)c(F)c2F)C(=O)N1 (racemic) , output reported DC50.
< 10 nM

Retrieve DC50 measured for O=C1CC[C@H](c2ccc(N3CCC(CN4CCN(c5ccc(-n6cc(-c7cc(Cl)cc(NS(=O)(=O)N8CC(F)C8)c7F)c(-c7ccncc7)n6)cc5)CC4)CC3)nc2)C(=O)N1 and print it.
< 10 nM

====

Biological target: BRAF D594G (Homo sapiens, UniProt P15056, D594G)
Construct: Horizon Discovery (HCT-116 BRAF−/− cells); host or cells: HCT-116 BRAF−/− cells, clone 63, lentiviral transduction
Sequence (P15056 whole entry D594G): as the sequence (P15056 whole entry G466V) above, with V466G, D594G counted along it
Experiment: BRAF HiBiT degradation assay, C-terminal HiBiT-tagged BRAF D594G overexpressed in HCT-116 BRAF−/− cells (clone 63), Nano-Glo HiBiT Lytic assay
Format: cell-based
Conditions: BRAF D594G (Class 3), HCT-116 BRAF−/− cells; observed Dmax relative to DMSO control
Method: An A375 cell line expressing a homozygous V600E mutation was purchased from ATCC (Manassas, VA, USA). […] HiBiT signal was measured by a Nano-Glo HiBiT Lytic assay (Promega cat. no. N3050). […] Luminesce units (LU) were read on an EnVision plate reader 2105 (Perkin Elmer). Percent protein remaining and viability remaining per sample were calculated as follows: […]
endpoint: Dmax

• CCN(C)S(=O)(=O)Nc1cc(Cl)cc(-c2cn(-c3ccc(N4CCN(CC5CCN(c6ccc(C7CCC(=O)NC7=O)cn6)CC5)CC4)cn3)nc2-c2ccncc2)c1F (racemic) = > 70%
• O=C1CCC(c2ccc(N3CCC(CN4CCN(c5ccc(-n6cc(-c7cc(F)cc(NS(=O)(=O)N8CCCC8)c7F)c(-c7ccncc7)n6)cc5)CC4)CC3)nc2)C(=O)N1 (racemic) = > 70%
• O=C1CC[C@H](c2ccc(N3CCC(CN4CCN(c5ccc(-n6cc(-c7cc(Cl)cc(NS(=O)(=O)N8CC(F)C8)c7F)c(-c7ccncc7)n6)cc5)CC4)CC3)cc2)C(=O)N1 = 30 to 70%
• O=C1CCC(c2c(F)cc(N3CCC(CN4CCN(c5ccc(-n6cc(-c7cc(Cl)cc(NS(=O)(=O)N8CCCC8)c7F)c(-c7ccncc7)n6)cc5)CC4)CC3)cc2F)C(=O)N1 (racemic) = 30 to 70%
• O=C1CC[C@H](c2ccc(N3CCC(CN4CCN(c5ccc(-n6cc(-c7cc(Cl)cc(NS(=O)(=O)C8CCCC8)c7F)c(-c7ccncc7)n6)cc5)CC4)CC3)nc2)C(=O)N1 = > 70%
• O=C1CCC(c2ccc(N3CCC(CN4CCN(c5ccc(-n6cc(-c7cc(Cl)cc(NS(=O)(=O)C8CCCC8)c7F)c(-c7ccncc7)n6)cc5)CC4)CC3)nc2)C(=O)N1 (racemic) = > 70%

Provide only the value of recorded Dmax for C[C@@H]1CN(c2ccc(-n3cc(-c4cc(Cl)cc(NS(=O)(=O)N5CC[C@@H](F)C5)c4F)c(-c4ccncc4)n3)nc2)CCN1CC1CCN(c2ccc(N3CCC(=O)NC3=O)cc2)CC1
30 to 70%

For the compound O=C1CCN(c2ccc(N3CCC(CN4CCN(c5ccc(-n6cc(-c7cc(Cl)cc(NS(=O)(=O)N8CCCC8)c7F)c(-c7ccncc7)n6)cc5)CC4)CC3)cc2)C(=O)N1 , give its reported Dmax.
30 to 70%

Tell us which Dmax value is on record for C[C@@H]1CN(c2ccc(-n3cc(-c4cc(Cl)cc(NS(=O)(=O)N5CC[C@@H](F)C5)c4F)c(-c4ccncc4)n3)nc2)CCN1CC1CCN(c2ccc(C3CCC(=O)NC3=O)cn2)CC1 (mixture of isomers)
> 70%

Given the compound O=C1CCC(c2ccc(N3CCC(CN4CCN(c5ccc(-n6cc(-c7cc(Cl)cc(NS(=O)(=O)N8CCCC8)c7F)c(-c7ccncc7)n6)cn5)CC4)CC3)nc2)C(=O)N1 (racemic) , write its reported Dmax.
30 to 70%

Given O=C1CC[C@H](c2ccc(N3CCC(CN4CCN(c5ccc(-n6cc(-c7cc(F)cc(NS(=O)(=O)N8CCCC8)c7F)c(-c7ccncc7)n6)cc5)CC4)CC3)cc2)C(=O)N1 , respond with its Dmax.
30 to 70%
